tested on: IL-6; assay: IL-6 inhibition in LPS-stimulated THP-1 cells (HTRF); assay type: cell-based; conditions: Homo sapiens; THP-1 cells, LPS 500 ng/mL, 22 hours, IL6 HTRF
READOUT NAME: log10(EC50) (log10 of the value in nM)
Form field - Quantity: EC50; Unit: nM; Scale: log10

Examples with answers:
| COMPOUND STRUCTURE STRING | log10(EC50) |
| --- | --- |
| CCC(=O)Nc1cncc(-c2cnc3[nH]nc(-c4cc5c(-c6cccc(F)c6)cncc5[nH]4)c3c2)c1 | 3.07 |
| Cc1ccncc1-c1cnc2[nH]nc(-c3cc4c(-c5cccnc5)cncc4[nH]3)c2c1 | 3.54 |
| CC(C)C(=O)Nc1cncc(-c2cnc3[nH]nc(-c4cc5c(-c6ccccc6F)cncc5[nH]4)c3c2)c1 | 3.16 |
| Cn1cc(-c2cnc3[nH]nc(-c4cc5c(-c6cc(F)cc(CNS(C)(=O)=O)c6)cncc5[nH]4)c3c2)cn1 | 2.30 |

Below is a list of compounds. For each, state its recorded log10(EC50).
1. O=C(Nc1cncc(-c2cnc3[nH]nc(-c4cc5c(-c6cccc(F)c6)cncc5[nH]4)c3c2)c1)C1CCC1
2. CS(=O)(=O)NCc1cc(F)cc(-c2cncc3[nH]c(-c4n[nH]c5ncc(-c6cncc(CN7CCCC7)c6)cc45)cc23)c1
3. CS(=O)(=O)NCc1cc(F)cc(-c2cncc3[nH]c(-c4n[nH]c5ncc(-c6cccnc6)cc45)cc23)c1

// result
[2.51, 2.51, 2.37]

----------
For each record, write down the corresponding pEC50.
System: IL-6
Assay: IL-6 inhibition in LPS-stimulated THP-1 cells (HTRF)
Assay type: cell-based
Conditions: Homo sapiens; THP-1 cells, LPS 500 ng/mL, 22 hours, IL6 HTRF
Experimental: THP-1 cells were cultured in basal media with 1% FBS for 24 hours before the start of the assay. […] THP-1 cells were plated at 5000 cells/well in the 384-well plates and incubated at 37° C. for 2 h. […] Following incubation for 3 hrs at room temperature, Homogeneous Time-Resolved Fluorescence (HTRF) was measured using the Envision (Perkin Elmer) at 665 nm and […]. The ratio of fluorescence at 665 nm to 620 nm was used as a readout for IL6 quantification. […]
Answers are plain numbers, as −log10 of the molar value.

Examples with answers:
| COMPOUND | pEC50 |
| --- | --- |
| CCNCc1cncc(-c2cnc3[nH]nc(-c4cc5c(-c6ccccc6F)cncc5[nH]4)c3c2)c1 [Compound 62] | 5.04 |
| CC(C)C(=O)Nc1cncc(-c2cnc3[nH]nc(-c4cc5c(-c6ccoc6)cncc5[nH]4)c3c2)c1 [Compound 317] | 5.68 |
| c1ncc(-c2cnc3[nH]nc(-c4cc5c(-c6ccoc6)cncc5[nH]4)c3c2)cn1 [Compound 335] | 5.60 |
| CC(C)C(=O)Nc1cncc(-c2cnc3[nH]nc(-c4cc5c(-c6cc(F)cc(CNS(C)(=O)=O)c6)cncc5[nH]4)c3c2)c1 [Compound 485] | 7.57 |

Below is a list of compounds. For each, state its recorded pEC50.
1. O=C(Nc1cncc(-c2cnc3[nH]nc(-c4cc5ccncc5[nH]4)c3c2)c1)C1CCCCC1 [Compound 275]
2. CC(C)(C)CC(=O)Nc1cncc(-c2cnc3[nH]nc(-c4cc5c(-c6ccoc6)cncc5[nH]4)c3c2)c1 [Compound 324]
3. CC(C)Nc1cncc(-c2cnc3[nH]nc(-c4cc5c(-c6cccc(F)c6)cncc5[nH]4)c3c2)c1 [Compound 12]

// result
1: 6.40; 2: 6.36; 3: 6.83
